// data source = patent US9776995B2

TARGET_DESC: Nav 1.7 (Homo sapiens (Human))
Sequence (Q15858 whole entry): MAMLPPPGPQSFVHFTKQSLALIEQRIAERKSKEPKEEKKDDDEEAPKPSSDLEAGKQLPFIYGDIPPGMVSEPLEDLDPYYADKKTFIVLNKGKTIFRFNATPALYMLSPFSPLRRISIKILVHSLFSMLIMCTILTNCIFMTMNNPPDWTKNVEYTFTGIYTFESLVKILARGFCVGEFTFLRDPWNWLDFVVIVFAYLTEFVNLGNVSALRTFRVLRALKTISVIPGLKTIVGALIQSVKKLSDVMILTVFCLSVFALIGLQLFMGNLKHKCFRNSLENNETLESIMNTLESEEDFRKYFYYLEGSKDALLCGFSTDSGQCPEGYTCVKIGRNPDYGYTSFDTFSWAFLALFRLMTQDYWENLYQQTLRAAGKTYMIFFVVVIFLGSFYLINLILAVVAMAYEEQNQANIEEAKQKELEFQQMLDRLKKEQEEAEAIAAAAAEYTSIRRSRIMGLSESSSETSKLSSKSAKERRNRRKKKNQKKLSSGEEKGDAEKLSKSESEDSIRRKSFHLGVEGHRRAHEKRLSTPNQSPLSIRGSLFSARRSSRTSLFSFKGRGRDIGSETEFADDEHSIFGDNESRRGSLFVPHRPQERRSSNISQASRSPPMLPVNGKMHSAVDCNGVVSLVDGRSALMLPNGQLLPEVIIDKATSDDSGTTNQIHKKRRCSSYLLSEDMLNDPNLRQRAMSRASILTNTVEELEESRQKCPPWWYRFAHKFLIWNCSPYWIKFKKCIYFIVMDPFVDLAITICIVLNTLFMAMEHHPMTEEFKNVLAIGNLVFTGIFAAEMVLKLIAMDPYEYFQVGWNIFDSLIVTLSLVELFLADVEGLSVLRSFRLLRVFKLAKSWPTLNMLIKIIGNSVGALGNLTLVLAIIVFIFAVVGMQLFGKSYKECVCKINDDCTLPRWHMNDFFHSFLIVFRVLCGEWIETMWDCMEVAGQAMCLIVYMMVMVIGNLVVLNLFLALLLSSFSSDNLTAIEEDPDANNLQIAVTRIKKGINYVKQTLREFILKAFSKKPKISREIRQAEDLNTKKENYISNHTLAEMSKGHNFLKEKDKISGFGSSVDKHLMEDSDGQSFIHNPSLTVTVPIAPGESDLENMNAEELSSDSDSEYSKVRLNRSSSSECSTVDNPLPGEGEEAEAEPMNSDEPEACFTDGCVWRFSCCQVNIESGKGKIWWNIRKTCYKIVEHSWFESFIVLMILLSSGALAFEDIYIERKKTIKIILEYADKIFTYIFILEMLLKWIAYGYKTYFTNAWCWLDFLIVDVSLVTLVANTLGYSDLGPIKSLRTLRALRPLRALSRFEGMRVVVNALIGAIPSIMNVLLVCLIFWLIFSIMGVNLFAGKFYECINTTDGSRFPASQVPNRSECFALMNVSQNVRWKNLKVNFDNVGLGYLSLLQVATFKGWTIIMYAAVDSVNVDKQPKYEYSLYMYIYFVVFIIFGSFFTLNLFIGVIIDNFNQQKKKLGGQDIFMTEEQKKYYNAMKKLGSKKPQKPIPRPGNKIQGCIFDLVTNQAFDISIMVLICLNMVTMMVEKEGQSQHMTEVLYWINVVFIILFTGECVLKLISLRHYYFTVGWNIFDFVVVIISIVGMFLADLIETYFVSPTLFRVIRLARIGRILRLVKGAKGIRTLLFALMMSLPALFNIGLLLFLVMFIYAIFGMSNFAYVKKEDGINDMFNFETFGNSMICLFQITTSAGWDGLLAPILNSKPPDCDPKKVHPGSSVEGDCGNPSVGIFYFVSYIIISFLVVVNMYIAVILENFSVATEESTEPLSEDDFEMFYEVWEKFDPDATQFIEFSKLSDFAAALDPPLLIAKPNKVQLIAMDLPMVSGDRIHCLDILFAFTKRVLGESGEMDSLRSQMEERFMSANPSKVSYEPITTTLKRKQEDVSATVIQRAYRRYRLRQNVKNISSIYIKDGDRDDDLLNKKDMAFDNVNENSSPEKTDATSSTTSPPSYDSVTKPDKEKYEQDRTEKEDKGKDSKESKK
EXPERIMENTAL_DETAILS: in-vitro Nav 1.7 PX data
Assay type: cell-based
MEASUREMENT_CONDITIONS: PatchXpress (PX), in vitro
QUANTITY_NAME: IC50 (nM)

[
  {
    "STRUCTURE": "COc1cc(-c2ccccc2C)c(C#N)cc1-c1nccc2cc(S(=O)(=O)Nc3ccon3)ccc12",
    "TARGET_DESC": "Nav 1.7 (Homo sapiens (Human))",
    "RECORDED_MEASUREMENT": 88
  },
  {
    "STRUCTURE": "COc1cc(-c2ccccc2)ccc1-c1nccc2cc(S(=O)(=O)Nc3ccon3)ccc12",
    "TARGET_DESC": "Nav 1.7 (Homo sapiens (Human))",
    "RECORDED_MEASUREMENT": 311
  },
  {
    "STRUCTURE": "COc1cc(-c2ccc(F)c(C)c2)c(Cl)cc1-c1nccc2cc(S(=O)(=O)Nc3ccon3)ccc12",
    "TARGET_DESC": "Nav 1.7 (Homo sapiens (Human))",
    "RECORDED_MEASUREMENT": 50.6
  },
  {
    "STRUCTURE": "COc1cc(-c2ccc(F)c(F)c2)c(C#N)cc1-c1nccc2cc(S(=O)(=O)Nc3ccon3)ccc12",
    "TARGET_DESC": "Nav 1.7 (Homo sapiens (Human))",
    "RECORDED_MEASUREMENT": 28.2
  },
  {
    "STRUCTURE": "COc1cc(-c2cc(C)cc(F)c2)c(C#N)cc1-c1nccc2cc(S(=O)(=O)Nc3ccon3)ccc12",
    "TARGET_DESC": "Nav 1.7 (Homo sapiens (Human))",
    "RECORDED_MEASUREMENT": 72.5
  },
  {
    "STRUCTURE": "COc1cc(-c2ccc(Cl)c(F)c2)c(F)cc1-c1nccc2cc(S(=O)(=O)Nc3ccon3)ccc12",
    "TARGET_DESC": "Nav 1.7 (Homo sapiens (Human))",
    "RECORDED_MEASUREMENT": 69
  }
]

----------
TARGET_DESC: Nav 1.7 (Homo sapiens (Human))
EXPERIMENTAL_DETAILS: Nav 1.7 in vitro PX assay (PatchXpress whole cell voltage clamp);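 also: holding potential set for 20 to 50% inactivation, sodium current evoked by a 20 ms step to −10 mV, peak current inhibition read after compound exposure, 3–5 cells per concentration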
Assay type: cell-based
pIC50: −log10 of the molar value.
Rule: pIC50 under 7 gives Not satisfied, otherwise Satisfied.

[
  {
    "MOLECULE": "COc1cc(-c2cccc(C(F)(F)F)c2)c(C#N)cc1-c1nccc2cc(S(=O)(=O)Nc3ncccn3)ccc12",
    "CLASSIFICATION": "Satisfied"
  },
  {
    "MOLECULE": "COc1cc(C(F)(F)F)ccc1C1c2ccc(S(=O)(=O)Nc3ncns3)cc2CCN1C(C)=O (centres unmarked)",
    "CLASSIFICATION": "Not satisfied"
  },
  {
    "MOLECULE": "COc1cc(C(F)(F)F)c(Cl)cc1-c1ncnc2cc(S(=O)(=O)Nc3ccon3)ccc12",
    "CLASSIFICATION": "Not satisfied"
  },
  {
    "MOLECULE": "COc1cc(-c2ccc(F)c(Cl)c2)c(Cl)cc1-c1ncnc2cc(S(=O)(=O)Nc3ncccn3)ccc12",
    "CLASSIFICATION": "Satisfied"
  },
  {
    "MOLECULE": "COc1cc(-c2cccc(F)c2)c(Cl)cc1-c1ncnc2cc(S(=O)(=O)Nc3cscn3)ccc12 [Example 378, 2,2,2-trifluoroacetate]",
    "CLASSIFICATION": "Not satisfied"
  }
]
